assayOverview: clinical
experimentalContext: both, human, in vivo
measure: concentration at 24 h (µM)
The figure you give is taken to be in µM; do not add the unit.

Looking up C[S@+]([O-])C[C@H](N)C(=O)O [SMCSO, (+)‐S‐methyl cysteine sulfoxide] , I see its concentration at 24 h listed as 4.66

Recorded values, source paper PMC6856681.
